Here, each record is paired with measured EC50 data.
# SUBJECT OF TEST: hS1P1/CHO cells (Homo sapiens (Human), UniProt P21453)
# Sequence (P21453 whole entry): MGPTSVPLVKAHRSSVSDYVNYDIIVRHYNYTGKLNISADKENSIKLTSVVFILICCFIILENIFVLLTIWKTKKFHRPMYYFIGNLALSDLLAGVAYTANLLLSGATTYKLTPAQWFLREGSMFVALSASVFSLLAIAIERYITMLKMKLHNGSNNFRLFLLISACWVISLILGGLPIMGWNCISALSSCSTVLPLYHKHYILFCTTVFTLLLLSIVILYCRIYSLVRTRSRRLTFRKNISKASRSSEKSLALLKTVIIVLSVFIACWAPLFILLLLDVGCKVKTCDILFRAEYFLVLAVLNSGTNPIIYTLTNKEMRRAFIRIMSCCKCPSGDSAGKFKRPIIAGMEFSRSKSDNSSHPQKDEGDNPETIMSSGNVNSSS
# METHOD SUMMARY: hS1P1 ERK phosphorylation (S1P1 pERK)
# Format: cell-based
# CONDITION SUMMARY: phosphate examples

| MOLECULE | EC50 |
| --- | --- |
| CCOc1cccc(CO[C@@H]2CCc3cc([C@H]4CC[C@](N)(COP(=O)(O)O)C4)ccc3C2)c1 [compound 444] | < 0.01 µM |
| CCCCCSC[C@H]1CCc2cc([C@H]3CC[C@](N)(COP(=O)(O)O)C3)ccc2C1 [compound 512] | 0.01 to 0.1 µM |
| COc1ccc(OC[C@@H]2CCc3cc([C@H]4CC[C@](N)(COP(=O)(O)O)C4)ccc3C2)cc1OC [compound 491] | 0.01 to 0.1 µM |
| CC(C)CCSC[C@@H]1CCc2cc([C@H]3CC[C@](N)(COP(=O)(O)O)C3)ccc2C1 [compound 510] | < 0.01 µM |
| C/C=C\CCCC[C@H]1CCc2cc([C@H]3CC[C@](N)(COP(=O)(O)O)C3)ccc2C1 [compound 660] | 0.01 to 0.1 µM |
| COCCCCC[C@H]1CCc2cc([C@@H]3CC[C@@](N)(COP(=O)(O)O)C3)ccc2C1 [compound 598] | < 0.01 µM |
| COCc1ccc(C[C@@H]2CCc3cc([C@H]4CC[C@](N)(COP(=O)(O)O)C4)ccc3C2)cc1 [compound 550] | < 0.01 µM |

----------
Here, each record is paired with measured EC50 data.
# SUBJECT OF TEST: hS1P1/CHO cells (Homo sapiens (Human))
# METHOD SUMMARY: hS1P1 ERK phosphorylation (S1P1 pERK)
# CONDITION SUMMARY: phosphate examples
MEASURE NAME: EC50

| MOLECULE | MEASURE NAME | VALUE OBSERVED |
| --- | --- | --- |
| N[C@]1(COP(=O)(O)O)CC[C@@H](c2ccc3c(c2)CC[C@@H](CSc2ccccc2)C3)C1 | EC50 | 10 to 100 nM |
| CCCC[S+]([O-])C[C@@H]1CCc2cc([C@H]3CC[C@](N)(COP(=O)(O)O)C3)ccc2C1 (some centres unmarked) | EC50 | 10 to 100 nM |
| COc1ccc(CC[C@@H]2CCc3cc(C4CCC(N)(COP(=O)(O)O)C4)ccc3C2)cc1 (single isomer, unassigned) | EC50 | 10 to 100 nM |
| Cc1ccc(OC[C@@H]2CCc3cc([C@H]4CC[C@](N)(COP(=O)(O)O)C4)ccc3C2)cc1 | EC50 | 10 to 100 nM |
| COc1cccc(SC[C@@H]2CCc3cc([C@H]4CC[C@](N)(COP(=O)(O)O)C4)ccc3C2)c1 | EC50 | 10 to 100 nM |
| N[C@]1(COP(=O)(O)O)CC[C@H](c2ccc3c(c2)CC[C@@H](CSc2ccncc2)C3)C1 | EC50 | < 10 nM |
| CCCCCCC1Cc2ccc([C@H]3CC[C@](N)(COP(=O)(O)O)C3)cc2CO1 (some centres unmarked) | EC50 | < 10 nM |
| CC(C)COCC[C@@H]1CCc2cc([C@H]3CC[C@](N)(COP(=O)(O)O)C3)ccc2C1 | EC50 | < 10 nM |
| N[C@@]1(COP(=O)(O)O)CC[C@@H](c2ccc3c(c2)CC[C@H](CCc2cccnc2)C3)C1 (single isomer, unassigned) | EC50 | < 10 nM |
| CCCCCCNC(=O)OC1CCc2cc([C@H]3CC[C@@](N)(COP(=O)(O)O)C3)ccc2C1 (some centres unmarked) | EC50 | < 10 nM |
| COc1cc(OC[C@@H]2CCc3cc([C@H]4CC[C@](N)(COP(=O)(O)O)C4)ccc3C2)ccc1Cl | EC50 | 10 to 100 nM |
| CC(C)(C)CSC[C@@H]1CCc2cc([C@H]3CC[C@](N)(COP(=O)(O)O)C3)ccc2C1 | EC50 | < 10 nM |
| C/C=C\CCC[C@@H]1CCc2cc([C@H]3CC[C@](N)(COP(=O)(O)O)C3)ccc2C1 | EC50 | 10 to 100 nM |
| CN(C)C(=O)c1cccc(OC[C@@H]2CCc3cc([C@H]4CC[C@](N)(COP(=O)(O)O)C4)ccc3C2)c1 | EC50 | < 10 nM |
| CCCC[C@H]1CCCC2(CCc3cc([C@H]4CC[C@](N)(COP(=O)(O)O)C4)ccc3C2)O1 (some centres unmarked) | EC50 | < 10 nM |
| N[C@@]1(COP(=O)(O)O)CC[C@@H](c2ccc3c(c2)CC[C@H](OCCOc2ccccc2)C3)C1 (single isomer, unassigned) | EC50 | < 10 nM |
| COc1ccc(SC[C@@H]2CCc3cc([C@H]4CC[C@](N)(COP(=O)(O)O)C4)ccc3C2)cc1 | EC50 | < 10 nM |
| CC/C=C/CC[C@H]1CCc2cc([C@H]3CC[C@](N)(COP(=O)(O)O)C3)ccc2C1 | EC50 | < 10 nM |
| CCCCCC[C@H]1Cc2ccc([C@H]3CC[C@](N)(COP(=O)(O)O)C3)cc2CO1 | EC50 | < 10 nM |
| COc1cncc(OC[C@@H]2CCc3cc([C@H]4CC[C@](N)(COP(=O)(O)O)C4)ccc3C2)c1 | EC50 | < 10 nM |
| C/C=C\CCCC[C@@H]1CCc2cc([C@H]3CC[C@](N)(COP(=O)(O)O)C3)ccc2C1 | EC50 | < 10 nM |
| CCc1ccc(COC[C@@H]2CCc3cc([C@H]4CC[C@](N)(COP(=O)(O)O)C4)ccc3C2)s1 | EC50 | < 10 nM |
| COc1ccccc1SC[C@@H]1CCc2cc([C@H]3CC[C@](N)(COP(=O)(O)O)C3)ccc2C1 | EC50 | < 10 nM |
| CCCCOC[C@@H]1COc2cc([C@H]3CC[C@](N)(COP(=O)(O)O)C3)ccc2O1 | EC50 | 1000 to 10000 nM |
| N[C@]1(COP(=O)(O)O)CC[C@H](c2ccc3c(c2)CC[C@@H](CSCCc2ccccn2)C3)C1 | EC50 | < 10 nM |
| CC(C)=CCOC[C@@H]1CCc2cc([C@H]3CC[C@](N)(COP(=O)(O)O)C3)ccc2C1 | EC50 | < 10 nM |
| COc1ccc(C[C@@H]2CCc3cc([C@H]4CC[C@](N)(COP(=O)(O)O)C4)ccc3C2)cc1OC | EC50 | < 10 nM |
| CC(C)c1ccccc1SC[C@@H]1CCc2cc([C@H]3CC[C@](N)(COP(=O)(O)O)C3)ccc2C1 | EC50 | 10 to 100 nM |
| COCc1cccc(OC[C@@H]2CCc3cc([C@H]4CC[C@](N)(COP(=O)(O)O)C4)ccc3C2)c1 | EC50 | 100 to 1000 nM |

----------
# SUBJECT OF TEST: hS1P1/CHO cells (Homo sapiens (Human))
# METHOD SUMMARY: hS1P1 ERK phosphorylation (S1P1 pERK)
# CONDITION SUMMARY: phosphate examples

| GIVEN SMILES | EC50 |
| --- | --- |
| N[C@]1(COP(=O)(O)O)CC[C@H](c2ccc3c(c2)CC[C@@H](COCc2cccs2)C3)C1 | < 0.01 µM |
| CC(C)CSCC[C@@H]1CCc2cc([C@H]3CC[C@](N)(COP(=O)(O)O)C3)ccc2C1 | < 0.01 µM |
| CC(C)CCOC[C@@H]1CCc2cc([C@H]3CC[C@](N)(COP(=O)(O)O)C3)ccc2C1 | < 0.01 µM |
| N[C@]1(COP(=O)(O)O)CC[C@H](c2ccc3c(c2)CC[C@@H](COc2ccc(F)cc2)C3)C1 | 0.01 to 0.1 µM |

----------
# SUBJECT OF TEST: S1P3 (membranes prepared from EDG3-Gal5-bla HEK293T cells) (Homo sapiens (Human), UniProt Q99500)
# Sequence (Q99500 whole entry): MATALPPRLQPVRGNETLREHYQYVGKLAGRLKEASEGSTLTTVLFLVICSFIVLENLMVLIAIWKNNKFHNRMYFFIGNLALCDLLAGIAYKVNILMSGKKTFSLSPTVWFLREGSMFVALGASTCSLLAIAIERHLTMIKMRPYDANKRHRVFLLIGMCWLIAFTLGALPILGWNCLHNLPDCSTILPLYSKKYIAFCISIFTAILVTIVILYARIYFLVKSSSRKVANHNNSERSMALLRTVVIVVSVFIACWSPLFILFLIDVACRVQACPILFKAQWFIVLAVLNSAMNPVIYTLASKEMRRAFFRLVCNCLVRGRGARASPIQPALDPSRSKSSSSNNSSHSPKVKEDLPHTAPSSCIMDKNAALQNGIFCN
# METHOD SUMMARY: Receptor [35S] GTPγS binding assay (S1P3 GTPγS)
# Type: biochemical
# CONDITION SUMMARY: membranes prepared from EDG3-Gal5-bla HEK293T cells; read-out: GTPγS S1P3 EC50
pEC50: −log10 of the molar value.

| COMPOUND | pEC50 |
| --- | --- |
| COCCCCCC1CCc2cc([C@H]3CC[C@](N)(COP(=O)(O)O)C3)ccc2C1 (single isomer, unassigned) | < 5.70 |

----------
# SUBJECT OF TEST: human S1P1 (Homo sapiens (Human), UniProt P21453)
# Sequence (P21453 whole entry): as the sequence (P21453 whole entry) above
# METHOD SUMMARY: S1P1 binding assay (33P-S1P radioligand competition, CHO cell membranes)
# CONDITION SUMMARY: phosphate examples; read-out: S1P1 Binding

| MOLECULE | IC50 |
| --- | --- |
| CCCCCC[C@@H]1Cc2ccc([C@H]3CC[C@](N)(COP(=O)(O)O)C3)cc2CO1 [compound 427] | 10 to 100 nM |
| COCCCCC[C@H]1CCc2cc([C@@H]3CC[C@@](N)(COP(=O)(O)O)C3)ccc2C1 [compound 598] | 10 to 100 nM |
| CCOc1cccc(C[C@@H]2CCc3cc([C@H]4CC[C@](N)(COP(=O)(O)O)C4)ccc3C2)c1 [compound 551] | 10 to 100 nM |
| COc1ccc(CC[C@@H]2CCc3cc(C4CCC(N)(COP(=O)(O)O)C4)ccc3C2)cc1 (single isomer, unassigned) [compound 593] | < 10 nM |
| C/C=C/CCCC[C@H]1CCc2cc([C@H]3CC[C@](N)(COP(=O)(O)O)C3)ccc2C1 [compound 659] | < 10 nM |
| CC(C)CSC[C@@H]1CCc2cc([C@H]3CC[C@](N)(COP(=O)(O)O)C3)ccc2C1 [compound 504] | < 10 nM |
| CCCCCO[C@@H]1CCc2cc([C@H]3CC[C@](N)(COP(=O)(O)O)C3)ccc2C1 [compound 430] | 10 to 100 nM |
| C=CCOCCC[C@@H]1CCc2cc(C3CCC(N)(COP(=O)(O)O)C3)ccc2C1 (single isomer, unassigned) [compound 601] | < 10 nM |
| COc1cccc(COC[C@H]2CCc3cc([C@H]4CC[C@](N)(COP(=O)(O)O)C4)ccc3C2)c1 [compound 481] | < 10 nM |
| Cn1cc(COC[C@@H]2CCc3cc([C@H]4CC[C@](N)(COP(=O)(O)O)C4)ccc3C2)cn1 [compound 471] | 100 to 1000 nM |
| CC1(C)c2cc([C@@H]3CC[C@](N)(COP(=O)(O)O)C3)ccc2C(=O)N1CCCc1ccccc1 [compound 615] | 100 to 1000 nM |
| CCCCC=C[C@H]1CCc2cc([C@H]3CC[C@](N)(COP(=O)(O)O)C3)ccc2C1 [compound 648] | 10 to 100 nM |
| CCCCSC[C@H]1CCc2cc([C@@H]3CC[C@](N)(COP(=O)(O)O)C3)ccc2C1 [compound 505] | 10 to 100 nM |
| CCCCCC1CCc2cc([C@H]3CC[C@](N)(COP(=O)(O)O)C3)ccc2C1 (some centres unmarked) [compound 576] | 10 to 100 nM |
| C#CCCOCCO[C@H]1CCc2cc([C@@H]3CC[C@@](N)(COP(=O)(O)O)C3)ccc2C1 [compound 586] | < 10 nM |
| CCCCC[C@H]1CCc2cc([C@@H]3CC[C@@](N)(COP(=O)(O)O)C3)ccc2C1 [compound 578] | < 10 nM |
| CCOc1cccc(C[C@H]2CCc3cc([C@H]4CC[C@](N)(COP(=O)(O)O)C4)ccc3C2)c1 [compound 548] | 10 to 100 nM |
| COCCC/C=C/[C@@H]1CCc2cc([C@H]3CC[C@](N)(COP(=O)(O)O)C3)ccc2C1 [compound 640] | < 10 nM |
| CC(C)CSCC[C@H]1CCc2cc([C@H]3CC[C@](N)(COP(=O)(O)O)C3)ccc2C1 [compound 539] | < 10 nM |
| N[C@@]1(COP(=O)(O)O)CC[C@@H](c2ccc3c(c2)CC[C@@H](CCc2ccc4ccccc4n2)C3)C1 [compound 605] | < 10 nM |
| COc1cccc(/C=C/[C@@H]2CCc3cc([C@H]4CC[C@](N)(COP(=O)(O)O)C4)ccc3C2)c1 [compound 643] | < 10 nM |
| N[C@]1(COP(=O)(O)O)CC[C@H](c2ccc3c(c2)CC[C@@H](COc2cccc(OC(F)(F)F)c2)C3)C1 [compound 497] | 10 to 100 nM |
| N[C@]1(COP(=O)(O)O)CC[C@H](c2ccc3c(c2)CC[C@@H](CSCCc2ccccc2)C3)C1 [compound 522] | < 10 nM |
| N[C@]1(COP(=O)(O)O)CC[C@H](c2ccc3c(c2)CC[C@@H](CCCC2CCOCC2)C3)C1 [compound 557] | 10 to 100 nM |
| COc1ccccc1/C=C/[C@@H]1CCc2cc([C@H]3CC[C@](N)(COP(=O)(O)O)C3)ccc2C1 [compound 641] | 100 to 1000 nM |
| CC(C)CC/C=C/[C@@H]1CCc2cc([C@H]3CC[C@](N)(COP(=O)(O)O)C3)ccc2C1 [compound 645] | 100 to 1000 nM |
| CCOc1ccc(C[C@H]2CCc3cc([C@H]4CC[C@](N)(COP(=O)(O)O)C4)ccc3C2)cc1 [compound 547] | < 10 nM |
| CCCCCC[C@H]1COc2cc([C@H]3CC[C@](N)(COP(=O)(O)O)C3)ccc2C1 [compound 424] | 10 to 100 nM |
| COCc1ccc(C[C@@H]2CCc3cc([C@H]4CC[C@](N)(COP(=O)(O)O)C4)ccc3C2)cc1 [compound 550] | 10 to 100 nM |
